All values here come from PubChem BioAssay (NCATS).

- test-name: Quantitative High-Throughput drug screen in 47 multiple myeloma cell lines against the NCATS MIPE library collection: KHM11_PLB cell viability assay (AID 1918962); note: nearly all actives have a fitted effect of over 35% in size
- experimental-setup: KHM11 myeloma cell viability, CellTiter-Glo ATP luminescence, 48 h; series mostly up to 45.8 µM
Records with an inconclusive call do not appear. The source made the active and inactive calls. Calls come from the whole dose curve; as a rule, active = well fitted cell-killing curve with a large enough effect; inconclusive = small, poorly fitted or top-dose-only effect, or effect the other way; inactive = no such curve, though single readings can be large or run the other way.
In this exercise, the only acceptable responses are t for active, f for inactive

Please share the test call associated with N#CC(=Cc1ccc(O)c(O)c1)C(=O)NCc1ccccc1 . t

Please share the test call associated with C=C1CCC2[C@](C)(CO)C(O)CC[C@]2(C)C1CC=C1C(=O)OCC1O (some centres undefined) . f

Please share the test call associated with C=CC(=O)Nc1ccc2ncnc(Nc3ccc(OCc4cccc(F)c4)c(Cl)c3)c2c1 . t

* * *

- test-name: Quantitative High-Throughput drug screen in 47 multiple myeloma cell lines against the NCATS MIPE library collection: KMM1_JCRB cell viability assay (AID 1918960); note: nearly all actives have a fitted effect of over 30% in size
- experimental-setup: KMM1 myeloma viability, CellTiter-Glo ATP luminescence, 48 h; series mostly up to 45.8 µM
Results filed as inconclusive are left out. The source made the active and inactive calls. Calls come from the whole dose curve; as a rule, active = well fitted cell-killing curve with a large enough effect; inconclusive = small, poorly fitted or top-dose-only effect, or effect the other way; inactive = no such curve, though single readings can be large or run the other way.
In this exercise, the only acceptable responses are YES for active, NO for inactive

# count of solved cases: 5
| molecule | label |
| --- | --- |
| C[C@@]12C[C@@]3(O)O[C@@H](O1)[C@]1(COC(=O)c4ccccc4)[C@@H]3C[C@@]12O[C@@H]1O[C@H](CO)[C@@H](O)[C@H](O)[C@@H]1O | NO |
| CCc1ccc(C(=O)Nc2cc(CN3CCN(C)CC3)cc(C(F)(F)F)c2)cc1C#Cc1cnc2ccnn2c1 | YES |
| COc1cc(OC)c(C=CS(=O)(=O)Cc2ccc(OC)c(NCC(=O)O)c2)c(OC)c1 | YES |
| COc1ccc(S(=O)(=O)Nc2cc(-c3c(O)ccc4ccccc34)c(O)c3ccccc23)cc1 | YES |
| COC[C@H](NC(=O)c1cnc(C)s1)C(=O)N[C@@H](COC)C(=O)N[C@@H](Cc1ccccc1)C(=O)[C@@]1(C)CO1 | YES |

Please share the test call associated with C[C@]12C=CC(=O)N[C@@H]1CC[C@H]1[C@H]3CC[C@@H](C(=O)Nc4cc(C(F)(F)F)ccc4C(F)(F)F)[C@@]3(C)CC[C@@H]12 . NO

Please share the test call associated with Cn1cc(C[C@@H](N)C(=O)O)c2ccccc21 . NO

Please share the test call associated with C[C@@H]1C(=O)O[C@H]2CC34[C@H]5C[C@@H](C(C)(C)C)C36[C@H](OC(=O)[C@@H]6O)O[C@@]4(C(=O)O5)[C@]21O (stereo partly specified) . NO

Please share the test call associated with NC(=O)Nc1sc(-c2ccc(F)cc2)cc1C(N)=O . YES

Please share the test call associated with C=CC[C@@H]1C=C(C)C[C@H](C)C[C@H](OC)[C@H]2O[C@@](O)(C(=O)C(=O)N3CCCC[C@H]3C(=O)O[C@H](C(C)=C[C@@H]3CC[C@H](O)[C@H](OC)C3)[C@@H](C)[C@@H](O)CC1=O)[C@@H](C)C[C@@H]2OC . YES

Please share the test call associated with Nc1nc2c(c(=O)[nH]1)N(C=O)[C@H](CNc1ccc(C(=O)N[C@@H](CCC(=O)O)C(=O)O)cc1)CN2 . NO

Please share the test call associated with C=C[C@@H]1CN2CCC1C[C@H]2[C@H](O)c1ccnc2ccc(OC)cc12 (stereo partly specified) . NO

Please share the test call associated with CCc1cnn2c(NCc3ccc[n+]([O-])c3)cc(N3CCCC[C@@H]3CCO)nc12 . YES

Please share the test call associated with C[C@H](NC(=O)C(C#N)=Cc1cccc(Br)n1)c1ccccc1 . YES

Please share the test call associated with CC(C)c1cc(C(C)C)c(CC(=O)NS(=O)(=O)Oc2c(C(C)C)cccc2C(C)C)c(C(C)C)c1 . YES

Please share the test call associated with FC(F)(F)c1ccc(Nc2nc3ccc(Oc4ccnc(-c5ncc(C(F)(F)F)[nH]5)c4)cc3[nH]2)cc1 . YES

* * *

Here the recorded max response is given for each entry.
- System: CRL-7250
- test-name: Cytotoxic Profiling of Annotated Libraries Using Quantitative High-Throughput Screening (AID 1296008); note: % is set by controls: 0 for no effect and ±100 for the full control effect; nearly all actives have a fitted effect of over 60% in size
- experimental-setup: Five cell lines viability, CellTiter-Glo ATP luminescence, 48-72 h; stronger effect = lower value
Inconclusive results are not listed.
Reply numerically in %, unit not repeated.

Some molecules with known max response results, for comparison:
| molecule | max response, % |
| --- | --- |
| Cc1ccccc1C(=O)Nc1ccc(C(=O)N2CCCC(O)c3cc(Cl)ccc32)c(C)c1 (centres undefined) | -23.5 |
| OCc1ccccc1O[C@@H]1O[C@H](CO)[C@H](O)[C@H](O)[C@H]1O | -20.8 |
| CC[C@H]1OC(=O)[C@H](C)[C@@H](O[C@H]2C[C@@](C)(OC)[C@@H](O)[C@H](C)O2)[C@H](C)[C@@H](O[C@@H]2O[C@@H](C)C[C@H](N(C)C)[C@@H]2O)[C@](C)(O)C[C@@H](C)C(=O)[C@H](C)[C@@H](O)[C@]1(C)O | 0.799 |

max response recorded for this molecule, COc1cc(OC)c(NC(=O)Nc2cc(C)on2)cc1Cl , is -0.274

* * *

- test-name: qHTS of pediatric cancer cell lines to identify multiple opportunities for drug repurposing: Confirmatory screen for DAOY cells (AID 1347114); note: nearly all actives have a fitted effect of over 65% in size
- experimental-setup: DAOY medulloblastoma cells viability, cytotoxicity qHTS; series mostly up to 45.9 µM
Records with an inconclusive call do not appear. Calls of active or inactive are those of the source. Calls follow the shape of the dose curve; as a rule, active = well fitted cell-killing curve with a large enough effect; inconclusive = small, poorly fitted or top-dose-only effect; inactive = no such curve, though single readings can be large or run the other way. Residues, ends and D or L forms follow the SMILES beside them. *: point of attachment. Cbz = O=C(OCc1ccccc1)*
In this exercise, the only acceptable responses are Y = active, N = inactive

# count of solved cases: 3
| molecule | label |
| --- | --- |
| Cc1ccc([N+](=O)[O-])cc1S(=O)(=O)N(C)N=Cc1cnc2ccc(Br)cn12 | Y |
| O=C(C=CC#Cc1cccc(NS(=O)(=O)c2ccccc2)c1)NO | Y |
| CC(C)C[C@@H](C=O)NC(=O)[C@H](CC(C)C)NC(=O)[C@H](CC(C)C)NC(=O)OCc1ccccc1 (Cbz-Leu-Leu-Leu-aldehyde) | Y |

Please share the test call associated with CC[C@]12C=CCN3CC[C@@]4(c5cc([C@@]6(C(=O)OC)C[C@H]7C[C@@H](C(C)(F)F)CN(Cc8c6[nH]c6ccccc86)C7)c(OC)cc5N(C)[C@H]4[C@@](O)(C(=O)OC)[C@H]1OC(C)=O)[C@@H]32 . N

Please share the test call associated with Cc1nc(NC(=O)N2CCC[C@@H]2C(N)=O)sc1-c1ccnc(C(C)(C)C(F)(F)F)c1 . N

Please share the test call associated with CCOC(=O)N1CCN([N+]([O-])=NOc2ccc([N+](=O)[O-])cc2C#N)CC1 . Y

Please share the test call associated with CCC(C=C[C@@H]1OC(=O)C=C[C@H]1C)=C[C@H](C)CC=CC(C)=C[C@@H](C)C(=O)[C@@H](C)[C@H](O)[C@@H](C)CC(C)=CC(=O)O . Y

* * *

- test-name: qHTS for identification of novel therapeutic agents for treatment of microphthalmiaassociated transcription factor (MiT) renal cell carcinoma (RCC) (AID 1963991);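 note: curves scaled with 100% = DMSO viability and 0% = empty wells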
- experimental-setup: TFE3-RCC viability, CellTiter-Glo, 48 h; measured here: UOK145 Z-AUC; stronger effect = lower value
Inconclusive results are not listed.
measured-quantity: z-score
Please state the value as a number alone, without comment.

Some compounds with known z-score results, for comparison:
| compound | measured-quantity | measured |
| --- | --- | --- |
| O=C(O)C(=O)Nc1cccc(C2=NN=N[N]2)c1 | z-score | 0.0651 |
| CCN(C(=O)c1c(O)c2c(Cl)cccc2n(C)c1=O)c1ccccc1 | z-score | 0.468 |
| CC[C@H](CC[C@@H](C)[C@H]1CC[C@H]2[C@@H]3CC=C4C[C@@H](O)CC[C@]4(C)[C@@H]3CC[C@]12C)C(C)C | z-score | 0.197 |

z-score recorded for this compound, OCCN1C[C@H](O)[C@@H](O)[C@H](O)[C@@H]1CO , is 1.03

* * *

- test-name: qHTS of pediatric cancer cell lines to identify multiple opportunities for drug repurposing: Primary screen for SK-N-SH cells (AID 1347098); note: nearly all actives have a fitted effect of over 65% in size
- experimental-setup: SK-N-SH viability, CellTiter-Glo luminescence, 48 h; series mostly up to 57 µM
- Procedure: Drug repurposing or repositioning has been offered as a strategy for drug development in oncology programs. […] [1] Shen, M et al. Quantitative high-throughput phenotypic screening of pediatric cancer cell lines identifies multiple opportunities for drug repurposing. […] Cells were assayed in growth media at a density of 500-1,000 cells/well. […] After a 15 min incubation at room temperature, samples were analyzed for luminescence intensity using a ViewLux High-throughput CCD imager equipped with clear filters.
Records with an inconclusive call do not appear. The source made the active and inactive calls. The call rests on the fitted dose curve; in most records, active means well fitted cell-killing curve with a large enough effect; inconclusive means small, poorly fitted or top-dose-only effect; inactive means no such curve, though single readings can be large or run the other way.
In this exercise, the only acceptable responses are 1 (yes) for active, 0 (no) for inactive

# count of solved cases: 4
| molecule | label |
| --- | --- |
| CC1(C)O[C@@H]2C[C@H]3[C@@H]4CCC5=CC(=O)C=C[C@]5(C)[C@@H]4[C@@H](O)C[C@]3(C)[C@]2(C(=O)CO)O1 | 0 (no) |
| O=C(Nc1ccc(Oc2ccnc3[nH]ccc23)c(F)c1)c1cccn(-c2ccc(F)cc2)c1=O | 0 (no) |
| c1ccc2c(Oc3nc(Nc4ccc(N5CCOCC5)cc4)c4ncn(C5CCCCC5)c4n3)cccc2c1 | 0 (no) |
| CN(C)c1ccc(C(=O)NCCCCCCC(=O)NO)cc1 | 1 (yes) |

Please share the test call associated with O=C(C=Cc1ccc(CN(CCO)CCc2c[nH]c3ccccc23)cc1)NO . 1 (yes)
